// data source = the supplement of paper PMC10065799

# STUDY_TARGET: Fes (UniProt P07332)
# Sequence (P07332 whole entry, looked up): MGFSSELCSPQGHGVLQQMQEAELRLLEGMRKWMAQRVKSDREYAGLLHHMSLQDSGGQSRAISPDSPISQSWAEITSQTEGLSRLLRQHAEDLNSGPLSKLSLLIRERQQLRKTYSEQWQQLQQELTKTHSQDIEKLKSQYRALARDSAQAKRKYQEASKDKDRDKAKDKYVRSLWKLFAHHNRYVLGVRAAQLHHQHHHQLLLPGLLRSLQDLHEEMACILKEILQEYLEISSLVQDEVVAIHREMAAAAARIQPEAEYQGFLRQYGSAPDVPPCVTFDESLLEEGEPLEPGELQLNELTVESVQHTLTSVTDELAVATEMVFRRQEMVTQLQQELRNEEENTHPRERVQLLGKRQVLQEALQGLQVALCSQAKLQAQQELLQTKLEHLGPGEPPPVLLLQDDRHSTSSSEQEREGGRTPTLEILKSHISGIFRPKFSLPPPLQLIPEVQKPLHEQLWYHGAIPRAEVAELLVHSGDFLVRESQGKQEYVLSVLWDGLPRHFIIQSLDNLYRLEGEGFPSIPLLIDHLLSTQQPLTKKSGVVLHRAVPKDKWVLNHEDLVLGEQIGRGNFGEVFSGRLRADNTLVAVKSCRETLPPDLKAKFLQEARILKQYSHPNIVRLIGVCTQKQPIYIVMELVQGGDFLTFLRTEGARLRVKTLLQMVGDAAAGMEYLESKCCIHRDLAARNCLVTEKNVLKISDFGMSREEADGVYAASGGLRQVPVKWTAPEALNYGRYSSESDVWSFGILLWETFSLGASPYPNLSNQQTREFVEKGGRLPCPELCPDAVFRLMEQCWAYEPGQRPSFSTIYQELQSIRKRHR
# PROTOCOL_NOTES: phosphorylation enrichment, bacterial display (enrichment ratio); higher = better substrate or ligand; peptides without Tyr show the background;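 note: 11-residue human phosphosite peptides and single-mutation variants displayed on the E. coli surface, counted by deep sequencing, each peptide's frequency after selection divided by its frequency in the unselected input library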;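 note: frequency after pTyr selection over input frequency; kinase dosed for 20-30% of maximal phosphorylation in three min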
Decision: phosphorylation enrichment compared against 1; not below it gives rule met, below it gives rule not met.

YASALYGQRRS [FGF11_Y162_R163G] | rule not met
FGISGYVVDSV [MAP2K3_Y214_L215V] | rule not met
FKNGDYSEVMK [LCT_Y1638_N1639S] | rule not met
QRAADYFSQQM [GBP6_Y333_YF] | rule not met
KMKGDYYRYLA [YWHAG_Y130] | rule not met

Req: Reported phosphorylation enrichment reaches at least 1 for SPPPAYTPMSG [ERBB4_Y1056] ?
Resp: rule not met

Req: Next sequence up: SVTCTCSPALN [TP53_Y126_Y126C]
Resp: rule met

Req: Next sequence up: LFLACYCIGGG [UBD_Y161]
Resp: rule met

Req: Next sequence up: FDGGCYEQLFV [MC4R_Y41_S36Y_YF]
Resp: rule met

Req: Next sequence up: WISNRYPDFSS [PRPH2_Y184_L185P]
Resp: rule not met

Req: Next sequence up: HFVDEYDPTME [KRAS_Y32_I36M]
Resp: rule met

Req: Next sequence up: LKALHYMVQTS [SACS_Y3367]
Resp: rule not met

Req: Next sequence up: PSQRHYVYYYS [PTEN_Y174_R173H]
Resp: rule met

* * *

# System: Fer (mouse)
# PROTOCOL_NOTES: phosphorylation enrichment, bacterial display (enrichment ratio); higher = better substrate or ligand; peptides without Tyr show the background
TEST_READOUT: phosphorylation enrichment
Form: value (number only, do not type unit).

Reference set, count: 5
HDRREYSRFEK [ITGB7_Y758_Y753H] | 0.731
AHADEYGAEAL [HBA1_Y25_G23D] | 0.412
IHTDAYVRAMT [RPE65_Y89_R85H] | 0.407
REGAKYVSHDA [ASS1_Y113_G117D] | 0.767
CEHRGSLFLAI [TEK_Y897_Y897S_YF] | 0.533

Req: Record request: phosphorylation enrichment value, item FDEFRYRSVIK [CFTR_Y517_YF]
Resp: 0.409

Req: Next sequence up: TVFSDYLHPQY [CCPG1_Y569]
Resp: 0.398

* * *

# STUDY_TARGET: FGFR1 (UniProt P11362)
# Sequence (P11362 whole entry, looked up): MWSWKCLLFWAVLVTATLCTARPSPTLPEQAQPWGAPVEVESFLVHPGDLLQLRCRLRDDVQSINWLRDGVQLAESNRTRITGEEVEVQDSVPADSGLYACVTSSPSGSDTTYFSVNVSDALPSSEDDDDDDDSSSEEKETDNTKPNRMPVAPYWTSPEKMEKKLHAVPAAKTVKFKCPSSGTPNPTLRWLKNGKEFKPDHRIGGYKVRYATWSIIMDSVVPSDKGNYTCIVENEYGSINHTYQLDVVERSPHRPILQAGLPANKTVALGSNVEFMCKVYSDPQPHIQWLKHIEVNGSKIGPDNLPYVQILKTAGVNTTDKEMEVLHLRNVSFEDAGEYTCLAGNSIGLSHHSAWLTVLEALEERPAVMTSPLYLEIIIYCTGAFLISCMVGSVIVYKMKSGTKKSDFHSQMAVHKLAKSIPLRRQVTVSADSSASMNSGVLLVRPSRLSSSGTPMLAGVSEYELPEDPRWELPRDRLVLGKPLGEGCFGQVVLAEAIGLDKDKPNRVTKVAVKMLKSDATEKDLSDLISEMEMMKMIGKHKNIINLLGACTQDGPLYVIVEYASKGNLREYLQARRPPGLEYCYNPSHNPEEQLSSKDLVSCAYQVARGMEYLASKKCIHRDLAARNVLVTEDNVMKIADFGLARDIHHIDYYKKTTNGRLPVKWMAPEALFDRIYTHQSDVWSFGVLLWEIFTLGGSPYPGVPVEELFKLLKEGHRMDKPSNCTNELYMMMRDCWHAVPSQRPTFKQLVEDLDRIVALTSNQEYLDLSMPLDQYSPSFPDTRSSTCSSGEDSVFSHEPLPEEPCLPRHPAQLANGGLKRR
# PROTOCOL_NOTES: phosphorylation enrichment, bacterial display (enrichment ratio); higher = better substrate or ligand; peptides without Tyr show the background
Decision: phosphorylation enrichment compared against 0.6; not below it gives condition met, below it gives condition not met.

Some entries whose results are on file:
IEDPYYGNDFD [ACP1_Y133_S137F] | condition met
LEQDEYALHSH [HADHB_Y244_R247H] | condition met
KVMANYVYKAG [MAML2_Y513_M514V] | condition not met
IAAEFYDNLPH [DEGS1_Y284_YF] | condition met
PGDGEYFTLQI [TP53_Y327_L323G] | condition met
KYACSYTPVKA [FLNB_Y708_T703K] | condition not met

Req: Reported phosphorylation enrichment reaches at least 0.6 for PIYEGYGLPHA [ACTA1_Y171_A172G] ?
Resp: condition not met

Req: Next sequence up: CTTIHYNYMWN [TP53_Y234_C238W]
Resp: condition met

Req: Next sequence up: YRDMDYRSYPH [RBM10_Y41_R46H]
Resp: condition met

Req: Next sequence up: RAMRRYLERGE [ERBB3_Y680]
Resp: condition met

Req: Next sequence up: LSVEIYDRREF [ITGB7_Y753_YF]
Resp: condition not met

* * *

In this section, each of the sequences is paired with its reported phosphorylation enrichment.
# STUDY_TARGET: EPHB2 (UniProt P29323)
# Sequence (P29323 whole entry, looked up): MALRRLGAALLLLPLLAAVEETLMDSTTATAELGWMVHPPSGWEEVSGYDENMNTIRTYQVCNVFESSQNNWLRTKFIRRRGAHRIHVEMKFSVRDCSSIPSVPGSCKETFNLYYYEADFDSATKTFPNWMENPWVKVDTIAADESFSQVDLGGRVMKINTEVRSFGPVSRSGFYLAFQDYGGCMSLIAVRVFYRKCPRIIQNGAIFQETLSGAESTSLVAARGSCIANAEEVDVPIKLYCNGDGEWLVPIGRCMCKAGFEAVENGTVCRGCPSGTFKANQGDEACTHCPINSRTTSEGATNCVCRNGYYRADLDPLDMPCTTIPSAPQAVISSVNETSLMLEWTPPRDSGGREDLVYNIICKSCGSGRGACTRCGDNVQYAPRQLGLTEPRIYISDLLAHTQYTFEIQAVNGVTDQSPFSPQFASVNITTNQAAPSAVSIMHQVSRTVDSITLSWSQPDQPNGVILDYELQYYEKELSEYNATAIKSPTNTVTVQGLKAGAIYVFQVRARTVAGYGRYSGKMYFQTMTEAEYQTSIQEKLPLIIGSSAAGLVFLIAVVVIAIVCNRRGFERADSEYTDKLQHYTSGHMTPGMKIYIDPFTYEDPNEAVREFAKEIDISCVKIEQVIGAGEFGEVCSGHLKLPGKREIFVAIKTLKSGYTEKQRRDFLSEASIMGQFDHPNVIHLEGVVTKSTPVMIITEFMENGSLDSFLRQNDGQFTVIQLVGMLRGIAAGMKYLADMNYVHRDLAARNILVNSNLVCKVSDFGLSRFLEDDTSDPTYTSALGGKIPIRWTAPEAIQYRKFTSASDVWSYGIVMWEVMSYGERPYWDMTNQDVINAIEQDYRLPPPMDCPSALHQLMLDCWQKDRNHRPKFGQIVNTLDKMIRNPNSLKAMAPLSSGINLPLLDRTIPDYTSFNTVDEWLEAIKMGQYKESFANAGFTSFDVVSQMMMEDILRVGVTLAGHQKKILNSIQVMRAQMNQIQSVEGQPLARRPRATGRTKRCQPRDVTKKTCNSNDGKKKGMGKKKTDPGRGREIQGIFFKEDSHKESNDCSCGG
# PROTOCOL_NOTES: phosphorylation enrichment, bacterial display (enrichment ratio); higher = better substrate or ligand; peptides without Tyr show the background
Form: value (number only, do not type unit).

Reference set, count: 2
VNNTVYGIDAM [EIF3J_Y143_A141T] | 0.429
LKALHYMVQTS [SACS_Y3367] | 0.512

Req: Record request: phosphorylation enrichment value, item ARLEFYENEKK [IRS1_Y47_YF]
Resp: 0.597

* * *

# System: c-Abl (mouse)
# PROTOCOL_NOTES: phosphorylation enrichment, bacterial display (enrichment ratio); higher = better substrate or ligand; peptides without Tyr show the background
In this section, each of the sequences is paired with its reported phosphorylation enrichment.
Form: value (number only, do not type unit).

NACGLYFKLHN [GATA2_Y376_YF] | 0.784
TLLERYGMIEI [ACSF3_Y355_T358I] | 0.802

Moving on to another sequence below.
Req: Record request: phosphorylation enrichment value, item GFRVCYTPDSR [PTPRF_Y451_Y450C_YF]
Resp: 0.777

* * *

# Test system: c-Src
# PROTOCOL_NOTES: phosphorylation enrichment, bacterial display (enrichment ratio); higher = better substrate or ligand; peptides without Tyr show the background
In this section, each of the sequences is paired with its reported phosphorylation enrichment.

Reference set, count: 4
TILEHYRRTHC [MYBPC3_Y1119_V1115I] | 0.505
SSYSGYIMMPN [LEF1_Y114] | 0.684
LIEQAYDNPHE [PRPF8_Y871] | 0.472
FLLRVYSIFSK [SGCE_Y38_T36R] | 1.49

Moving on to another sequence below.
Req: Item: SSPQPYLVPFL [TAF4_Y652] Test system: c-Src Read-out: phosphorylation enrichment Value: ?
Resp: 0.49

* * *

# STUDY_TARGET: EPHB2 (UniProt P29323)
# PROTOCOL_NOTES: phosphorylation enrichment, bacterial display (enrichment ratio); higher = better substrate or ligand; peptides without Tyr show the background
In this section, each of the sequences is paired with its reported phosphorylation enrichment.
Form: value (number only, do not type unit).

Reference set, count: 3
NACGLYFKLHN [GATA2_Y376_YF] | 0.496
PVDTFYDSTRG [DYNC2H1_Y2231_M2227V_YF] | 0.551
CDDGKYVFVVT [RPS6KA3_Y488_Y483C_YF] | 0.719

Req: Record request: phosphorylation enrichment value, item LAGRYYALRSM [CKB_Y174_K177R]
Resp: 0.688

Req: Next sequence up: YRQLQYCPSVE [CTNND2_Y508]
Resp: 0.591

Req: Next sequence up: TIQIMYGCDVG [HLA-A_Y123]
Resp: 0.664

Req: Next sequence up: EEKKKYFDTKI [CASP5_Y103_YF]
Resp: 0.445

Req: Next sequence up: KSSDVYVSFDF [SORL1_Y136_YF]
Resp: 1.11

* * *

In this section, each of the sequences is paired with its reported phosphorylation enrichment.
# STUDY_TARGET: EPHB2 (UniProt P29323)
# PROTOCOL_NOTES: phosphorylation enrichment, bacterial display (enrichment ratio); higher = better substrate or ligand; peptides without Tyr show the background

PSALGYSPSLR [LLGL2_Y40] | 0.628
FGPPQYNIQFS [ERBB2IP_Y977_YF] | 0.44
LTMAPYSSVSV [FAM81A_Y24_L29V] | 0.531

Req: Item: KALKQYRAGPS [DDX27_Y763] Test system: EPHB2 (UniProt P29323) Read-out: phosphorylation enrichment Value: ?
Resp: 0.312

Req: Next sequence up: QTEAQYRFIYM [PTPN11_Y511]
Resp: 0.782

Req: Next sequence up: SGPRHYTIAAL [TTR_Y125_R124H]
Resp: 0.51

Req: Next sequence up: KVDKECEVRVR [GHR_Y226_Y226C]
Resp: 0.569

Req: Next sequence up: HDRREYSRFEK [ITGB7_Y758_Y753H]
Resp: 0.373

Req: Next sequence up: QMVGMYASFFM [AVPR2_Y124_S127F_YF]
Resp: 2.27

Req: Next sequence up: SSMNDYNPLEK [MYOC_Y479_I477N]
Resp: 0.454

Req: Next sequence up: RDEHGYISRCF [HSPB1_Y133_Q128R]
Resp: 1.15

Req: Next sequence up: DLSEVYKPRRK [CCDC93_Y176]
Resp: 0.454

Req: Next sequence up: WRRLIYRCQVG [NR2E3_Y81_R76W]
Resp: 0.486

* * *

# Test system: c-Src
# PROTOCOL_NOTES: phosphorylation enrichment, bacterial display (enrichment ratio); higher = better substrate or ligand; peptides without Tyr show the background
TEST_READOUT: phosphorylation enrichment

Req: Record request: phosphorylation enrichment value, item PSALGYSPSLH [LLGL2_Y40_R45H]
Resp: 0.631

Req: Next sequence up: TISPYYCQSLF [CRYAA_Y48_R49C]
Resp: 1.76

Req: Next sequence up: ENRKFYKDLKE [PURA_Y156_M157K_YF]
Resp: 0.422

Req: Next sequence up: QQLQGYVPSNF [FRK_Y99_I100V_YF]
Resp: 0.904

Req: Next sequence up: CTTIHYNFLCN [TP53_Y234_M237L_YF]
Resp: 0.499

Req: Next sequence up: FGISGYVVDSV [MAP2K3_Y214_L215V]
Resp: 0.412

Req: Next sequence up: ILDEAYVMAIV [EGFR_Y764_S768I]
Resp: 0.829

Req: Next sequence up: CTTIHYDFMCN [TP53_Y234_N235D_YF]
Resp: 0.545

Req: Next sequence up: RRIHCYRGHLW [VHL_Y112_S111C]
Resp: 0.62

Req: Next sequence up: DLSEVYKPRRK [CCDC93_Y176]
Resp: 0.573

Req: Next sequence up: SSVAGYACLAY [MVD_Y131_A128V]
Resp: 0.554
